Biological target: Glucocorticoid receptor (Homo sapiens) (UniProt P04150)
Sequence (P04150 whole entry, looked up): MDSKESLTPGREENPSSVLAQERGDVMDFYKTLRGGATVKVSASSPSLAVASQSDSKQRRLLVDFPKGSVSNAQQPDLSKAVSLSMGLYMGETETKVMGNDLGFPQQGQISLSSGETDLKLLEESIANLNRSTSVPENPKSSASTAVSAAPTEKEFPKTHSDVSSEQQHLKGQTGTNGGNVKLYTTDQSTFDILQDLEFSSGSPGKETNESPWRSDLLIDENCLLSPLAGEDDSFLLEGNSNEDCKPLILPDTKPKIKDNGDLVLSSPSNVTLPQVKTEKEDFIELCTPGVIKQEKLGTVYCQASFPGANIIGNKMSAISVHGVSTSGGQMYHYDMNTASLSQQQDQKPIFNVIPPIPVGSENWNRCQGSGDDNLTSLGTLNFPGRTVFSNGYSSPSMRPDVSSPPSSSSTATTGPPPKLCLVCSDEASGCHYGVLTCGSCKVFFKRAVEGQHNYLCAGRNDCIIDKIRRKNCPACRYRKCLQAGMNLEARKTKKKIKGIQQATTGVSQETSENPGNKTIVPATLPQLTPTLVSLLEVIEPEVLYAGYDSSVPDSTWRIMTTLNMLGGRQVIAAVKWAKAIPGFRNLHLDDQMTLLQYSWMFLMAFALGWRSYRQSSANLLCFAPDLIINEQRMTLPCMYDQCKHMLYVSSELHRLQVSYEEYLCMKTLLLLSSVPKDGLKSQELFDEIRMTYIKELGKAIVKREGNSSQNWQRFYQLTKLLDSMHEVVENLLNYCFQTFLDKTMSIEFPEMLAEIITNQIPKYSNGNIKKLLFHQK
Assay: qHTS assay to identify small molecule agonists of the glucocorticoid receptor (GR) signaling pathway (AID 720691); further: on the % scale 0 is the no-effect control and ±100 the full control effect
Conditions: GR-bla HeLa, beta-lactamase reporter ratio, 18 h; series mostly up to 62.4 µM
Results filed as inconclusive are left out. Calls of active or inactive are those of the source. The call rests on the fitted dose curve; in most records, active means well fitted activation curve with a large enough effect in the signal ratio in the repeat runs (not every such curve was filed as active); inconclusive means weak or mixed curves, or effect the other way; inactive means no such curve, though single readings can be large or run the other way; the % refers to the signal ratio.
experimental_endpoint: outcome

Look over these answered cases.
• O=[N+]([O-])O[C@H]1CO[C@H]2[C@@H]1OC[C@H]2O[N+](=O)[O-] = inactive
• CN(C)C(=O)Nc1cccc(OC(=O)NC(C)(C)C)c1 = inactive
• O=C1CC[C@@]2(O)[C@H]3Cc4ccc(O)c5c4[C@@]2(CCN3CC2CC2)[C@H]1O5 = inactive
• C[C@H]1O[C@H](OC2[C@@H](O)[C@@H](O)C(O)[C@H](O)[C@H]2O)[C@@H](N)C[C@@H]1N=C(N)C(=O)O (stereo not given in full) = inactive

Okay, next one:
[Q] Which value of outcome has been reported for CON(C)C(=O)Nc1ccc(Cl)cc1 in the records?
[A] inactive

* * *

Assay: qHTS RealTime-Glo MT Cell Viability Assay in HEK293 cells - 24 hour (AID 1224886); further: nearly all actives have a fitted effect of over 50% in size
Details: RealTime-Glo luminescence; series mostly up to 76.8 µM
Results filed as inconclusive are left out. The source made the active and inactive calls. Calls come from the whole dose curve; as a rule, active = well fitted cell-killing curve with a large enough effect in the repeat runs; inconclusive = weak or mixed curves, or effect the other way; inactive = flat fitted curve, though single readings scatter.
Write down one outcome, taken from active, inactive

Worked examples follow.
* Cc1ccccc1 | inactive
* CC1(C)CC(=O)CC(C)(C)N1[O] | inactive
* Cc1nc(N(C)C)nc(OC(=O)N(C)C)c1C | inactive
* c1ccc2c(c1)-c1cccc3cccc-2c13 | inactive
* O=C(O)c1cc(Cl)ccc1Cl | inactive
* CC(C)(C)c1ccc(CCOc2ncnc3ccccc23)cc1 | inactive
* CC(CC(C(N)=O)(c1ccccc1)c1ccccc1)N(C)C (stereo not drawn) | inactive
* CC(C)(c1ccccc1)c1cc(-n2nc3ccccc3n2)c(O)c(C(C)(C)c2ccccc2)c1 | inactive
* O=C(O)c1cc(I)cc(I)c1I | inactive
* CCCSP(=S)(OCC)Oc1ccc(SC)cc1 (stereo not drawn) | inactive

[Q] How did this test come out for CCOP(=S)(OCC)Oc1ccc(S(C)=O)cc1 (stereo not drawn) ?
[A] inactive

[Q] Input O=C(O)COc1cc(Cl)c(Cl)cc1Cl
[A] inactive

[Q] Entry CCCN(CCC)C(=O)Cc1c(-c2ccc(Cl)cc2)nc2ccc(Cl)cn12 please
[A] active

* * *

Test: qHTS assay to identify small molecule agonists of the peroxisome proliferator-activated receptor delta (PPARd) signaling pathway - cell viability counter screen (AID 743211); further: nearly all actives have a fitted effect of over 55% in size
Conditions: PPARd-bla HEK293H viability, CellTiter-Glo luminescence, 17 h; series mostly up to 62.6 µM
Inconclusive results are not listed. The source made the active and inactive calls. The call rests on the fitted dose curve; in most records, active means well fitted cell-killing curve with a large enough effect in the repeat runs; inconclusive means weak or mixed curves; inactive means no such curve, though single readings can be large or run the other way.
Output constraint: value belongs to class 1 for active, class 0 for inactive

- CCOC(=O)NC(O)C(Cl)(Cl)Cl (stereo not drawn): class 0
- O=C(O)CCCOc1ccc(Cl)cc1Cl: class 0
- FC(F)OC(F)(F)C(F)Cl (stereo not drawn): class 0
- C=C(C)C(=O)OCCCCOC(=O)C(=C)C: class 0
- N#CC(C#N)=Cc1ccc(O)c(O)c1: class 0

[Q] Status in this test for CCCCCBr ?
[A] class 0

[Q] # repeat for CN(C)c1ccc(N=O)cc1
[A] class 1

[Q] Follow-up item: COc1ccc2c(c1OC)C(=O)O[C@H]2[C@@H]1c2cc3c(cc2CCN1C)OCO3
[A] class 0

* * *

Assay: qHTS assay for identifying genotoxic compounds that show differential cytotoxicity against isogenic chicken DT40 cell lines with known DNA damage response pathways - Rev3 mutant cell line (AID 743014); further: nearly all actives have a fitted effect of over 55% in size
Conditions: chicken DT40 Rev3-/- viability, CellTiter-Glo, 40 h; series mostly up to 68.4 µM
Inconclusive results are not listed. Activity calls are given as the source filed them. Calls come from the whole dose curve; as a rule, active = well fitted cell-killing curve with a large enough effect in the repeat runs; inconclusive = weak or mixed curves, or effect the other way; inactive = no such curve, though single readings can be large or run the other way.
Hi there, use one of these labels in your reply, thanks! active, inactive

- CCOP(=O)(SC(C)CC)N1CCSC1=O (configuration not stated): inactive
- OCCSSCCO: inactive
- O=C(CCl)CCl: active

[Q] Could you please tell me the result logged for COP(=O)(OC)OC(Br)C(Cl)(Cl)Br (configuration not stated) in this assay?
[A] active

[Q] // next record O=[N+]([O-])c1cc(Cl)c(Cl)cc1Cl
[A] inactive

[Q] Can you handle C[C@H]1O[C@H](OC2[C@@H](O)[C@@H](O)C(O)[C@H](O)[C@H]2O)[C@@H](N)C[C@@H]1N=C(N)C(=O)O (some centres not stated) next?
[A] inactive

[Q] Proceed to Cc1ccc(N)c(C)c1
[A] inactive

* * *

Target: Retinoic acid receptor RXR-alpha (Homo sapiens)
Assay: qHTS assay to identify small molecule agonists of the RXR signaling pathway (AID 1159527); further: nearly all actives have a fitted effect of over 35% in size
Conditions: HEK293T RXRa-UAS-bla, beta-lactamase ratio, 16 h; series mostly up to 76.8 µM
Records with an inconclusive call do not appear. The source made the active and inactive calls. The call rests on the fitted dose curve.
In this exercise, the only acceptable responses are yes = active, no = inactive

- C=C(Cl)Cl: no
- CC(C)C1(C)N=C(c2ncccc2C(=O)O)NC1=O (stereo unspecified): yes
- CC(C)CCON=O: no
- CCCC1CCCCN1 (stereo unspecified): no

[Q] Returns: the outcome recorded for Clc1ccc2ccccc2c1 in this assay.
[A] no

[Q] Check O=S(=O)(Cl)Cl too.
[A] no

* * *

Test: qHTS assay to identify small molecule agonists of the TGF-beta/Smad signaling pathway (AID 1346859); further: on the % scale 0 is the no-effect control and ±100 the full control effect
Details: SBE-bla HEK293T, TGF-beta/Smad beta-lactamase reporter, 5 h; series mostly up to 76.8 µM
Inconclusive results are not listed. Activity calls are given as the source filed them. The call rests on the fitted dose curve; in most records, active means well fitted activation curve with a large enough effect in the signal ratio in the repeat runs (not every such curve was filed as active); inconclusive means weak or mixed curves; inactive means flat fitted curve, though single readings scatter; the % refers to the signal ratio.
experimental_endpoint: activation

Answered examples (5):
* Cc1cnc(C2=NC(C)(C(C)C)C(=O)N2)c(C(=O)O)c1 (configuration not stated) | inactive
* CN1C(=O)CN=C(c2ccccc2)c2cc([N+](=O)[O-])ccc21 | inactive
* C=CCSSCC=C | inactive
* CN(C1CCCCC1)C1CCCCC1 | inactive
* CCOP(=O)(SC(C)CC)N1CCSC1=O (configuration not stated) | inactive

# map each molecule to its activation
1. SCc1ccccc1
2. C[C@]12CC[C@H]3[C@@H](CCC4=CC(=O)CC[C@@H]43)[C@@H]1CC[C@@H]2OC(=O)CCc1ccccc1

[A]
1: inactive; 2: inactive

* * *

Experiment: A CellTox Green Cytotoxicity Assay to monitor cytotoxicity in HEK293 cells - 32 hour (AID 1224881); further: on the % scale 0 is the no-effect control and ±100 the full control effect; nearly all actives have a fitted effect of over 40% in size
Settings: CellTox Green fluorescence; series mostly up to 76.8 µM
Results filed as inconclusive are left out. Activity calls are given as the source filed them. Calls follow the shape of the dose curve; as a rule, active = well fitted activation curve with a large enough effect in the repeat runs; inconclusive = weak or mixed curves; inactive = flat fitted curve, though single readings scatter.
Hi there, use one of these labels in your reply, thanks! active, inactive

The examples below pair each entry with its known result.
* COC(=O)C1(O)c2ccccc2-c2ccccc21 | inactive
* NCCc1cc(O)c(O)cc1O | inactive
* Nc1cccc2ccccc12 | inactive
* C=C(Cl)Cl | inactive
* CC(C)(C#N)C(C)(C)C#N | inactive

[Q] Record request — test call for C[N+]1(CCC(C(N)=O)(c2ccccc2)c2ccccc2)CCCCC1
[A] inactive

[Q] What do we get for C[N+](C)(C)CC1CO1 (configuration not stated) ?
[A] inactive

[Q] Do the same for C[N+](C)(C)CCOC(=O)C(O)(c1ccccc1)c1ccccc1 please
[A] inactive

* * *

Molecular target: Acetylcholinesterase (Homo sapiens)
Assay: Acetylcholinesterase (AChE) small molecule antagonists: enzyme-based qHTS assay with human liver microsomes (AID 1347399); further: on the % scale 0 is the no-effect control and ±100 the full control effect; nearly all actives have a fitted effect of over 60% in size
Conditions: qHTS inhibition; series mostly up to 115 µM
Activity calls are given as the source filed them. The call rests on the fitted dose curve.
Permitted responses: Yes (active), No (inactive)

[Q] Hi team, can someone confirm the assay call for O=C(O)c1cc(I)cc(I)c1I ?
[A] No

[Q] Then this compound: OCC1CO1 (centres undefined)
[A] No

[Q] Quick one: COC1=CC(=O)O[C@@H](/C=C/c2ccc3c(c2)OCO3)C1
[A] No

* * *

Target: Androgen receptor (Homo sapiens)
Test: qHTS assay to identify small molecule antagonists of the androgen receptor (AR) signaling pathway using the MDA cell line in the presence of 0.5 nM R1881 (AID 1259243); further: on the % scale 0 is the no-effect control and ±100 the full control effect; nearly all actives have a fitted effect of over 50% in size
Details: MDA-kb2 MMTV-luciferase, R1881 0.5 nM, 16 h; series mostly up to 92.4 µM
Records with an inconclusive call do not appear. Activity calls are given as the source filed them. The call rests on the fitted dose curve; in most records, active means well fitted inhibition curve with a large enough effect in the repeat runs; inconclusive means weak or mixed curves; inactive means no such curve, though single readings can be large or run the other way.
experimental_endpoint: activity, negative = inhibition

* CC(CC(C(N)=O)(c1ccccc1)c1ccccc1)N(C)C (centres undefined) | inactive
* CC(=O)NNc1ccccc1 | inactive
* O=C(Cl)OCCOCCOC(=O)Cl | inactive
* O=C(O)COc1cc(Cl)c(Cl)cc1Cl | inactive
* O=C(N[C@H]1CN2CCC1CC2)c1ccc2c(c1)OCCO2 | inactive
* C#CC(O)(C=CCl)CC (centres undefined) | inactive

Dear colleague, could you send me activity, negative = inhibition for each of the items below? Thanks.
1. CC(C)(C)NCC(O)c1cc(Cl)c(N)c(C(F)(F)F)c1 (centres undefined)
2. Nc1ccccc1C(=O)OCC(O)CO (centres undefined)
3. O=CC=O

[A]
inactive
inactive
inactive
